details: Day 18; G3-G9 groups; single IP dose; Mean±SEM

{"compound": "O=C(Nc1nc(=O)n([C@@H]2O[C@H](CO)[C@@H](O)C2(F)F)cc1Br)OCc1ccccc1 [Compound G7]", "Weight of mice, Day 18 [g]": 23.00}
{"compound": "CC(C)(C)OC(=O)Nc1ccn([C@@H]2O[C@H](CO)[C@@H](O)C2(F)F)c(=O)n1 [Compound G3]", "Weight of mice, Day 18 [g]": 21.03}
{"compound": "O=C(Nc1ccn([C@@H]2O[C@H](CO)[C@@H](O)C2(F)F)c(=O)n1)OCc1ccc([N+](=O)[O-])cc1 [Compound G5]", "Weight of mice, Day 18 [g]": 22.75}
{"compound": "O=C(Nc1ccn([C@@H]2O[C@H](CO)[C@@H](O)C2(F)F)c(=O)n1)OCc1ccccc1 [Compound G4]", "Weight of mice, Day 18 [g]": 22.20}
{"compound": "CC(C)(C)OC(=O)Nc1ccn([C@@H]2O[C@H](COC(=O)Cn3cnc([N+](=O)[O-])c3)[C@@H](O)C2(F)F)c(=O)n1 [Compound G9]", "Weight of mice, Day 18 [g]": 21.17}
{"compound": "CCCCOC(=O)Nc1nc(=O)n([C@@H]2O[C@H](CO)[C@@H](O)C2(F)F)cc1Br [Compound G6]", "Weight of mice, Day 18 [g]": 20.30}

Source listed as patent US10174067B2.
